Target: ACAT2 (Mus musculus, UniProt O88908)
Construct: The resulting sediment was collected as a microsome fraction; from tissue; host or cells: mouse liver (hepatic microsome membrane fraction)
Assay: Measurement of ACAT2-inhibiting activity (murine hepatic microsome, [14C]cholesteryl oleate formation)
Type: biochemical
Conditions: murine hepatic microsome membrane fraction, 5 min at 37° C.; read-out: Inhibitory activity (concentration required for 50% inhibition of ACAT 2 = IC50)
Documented IC50 across a set of compounds

>  <compound>
CC(C)C(=O)OCC1(C)C2C[C@H](OC(=O)c3ccc([N+](=O)[O-])cc3)[C@@]3(C)Oc4cc(-c5cccnc5)oc(=O)c4[C@H](O)C3[C@@]2(C)CC[C@@H]1OC(=O)C(C)C (some centres unmarked)

>  <IC50>
500 to 1000 pM

$$$$
>  <compound>
CC(=O)OCC1(C)C2C[C@H](OC(=O)c3ccc(C#N)cc3)[C@@]3(C)Oc4cc(-c5cccnc5)oc(=O)c4[C@H](O)C3[C@@]2(C)CC[C@@H]1OC(=O)C(C)C (some centres unmarked)

>  <IC50>
500 to 1000 pM

$$$$
>  <compound>
CC12CO[C@@H](c3ccccc3F)O[C@H]1CC[C@@]1(C)C2C[C@H](OC(=O)c2ccc(C#N)cc2)[C@@]2(C)Oc3cc(-c4cccnc4)oc(=O)c3[C@H](O)C12 (some centres unmarked)

>  <IC50>
500 to 1000 pM

$$$$
>  <compound>
Cc1cccc(C2OCC3(C)C(CCC4(C)C3CC(OC(=O)c3ccc(C#N)cc3)C3(C)Oc5cc(-c6cccnc6)oc(=O)c5C(O)C43)O2)c1 (centres unmarked)

>  <IC50>
< 500 pM

$$$$
>  <compound>
Cc1ccccc1[C@@H]1OCC2(C)C3C[C@H](OC(=O)c4ccc(C#N)cc4)[C@@]4(C)Oc5cc(-c6cccnc6)oc(=O)c5[C@H](O)C4[C@@]3(C)CC[C@@H]2O1 (some centres unmarked)

>  <IC50>
500 to 1000 pM

$$$$

----------
Assay: Stability against metabolizing enzymes in the liver (hepatic microsome)
Details: female, Sprague-Dawley (SD), rat, liver microsomes, pH 7.4, Half-life, time until remaining amount reached 50%, 37° C.
outcome measure: half-life at 6 μg/mL

>  <compound>
Cc1ccccc1[C@@H]1OCC2(C)C3C[C@H](OC(=O)c4ccc(F)cc4)[C@@]4(C)Oc5cc(-c6cccnc6)oc(=O)c5[C@H](O)C4[C@@]3(C)CC[C@@H]2O1 (stereo partly drawn)

>  <outcome measure>
half-life at 6 μg/mL

>  <result>
≥ 9 h

$$$$
>  <compound>
Cc1cccc(C)c1[C@@H]1OCC2(C)C3C[C@H](OC(=O)c4ccc(C#N)cc4)[C@@]4(C)Oc5cc(-c6cccnc6)oc(=O)c5[C@H](O)C4[C@@]3(C)CC[C@@H]2O1 (stereo partly drawn)

>  <outcome measure>
half-life at 6 μg/mL

>  <result>
≥ 9 h

$$$$
>  <compound>
CC12CO[C@@H](c3ccccc3)O[C@H]1CC[C@@]1(C)C2C[C@H](OC(=O)c2ccccc2)[C@@]2(C)Oc3cc(-c4cccnc4)oc(=O)c3[C@H](O)C12 (stereo partly drawn)

>  <outcome measure>
half-life at 6 μg/mL

>  <result>
≥ 9 h

$$$$

----------
Assay: in vitro
Conditions: female, Sprague-Dawley (SD), rat, microsomes, pH 7.4, Half-life
outcome measure: half-life at 6 μg/mL (h)

>  <smiles repr>
CC(=O)OC[C@@]1(C)[C@@H]2C[C@H](OC(C)=O)[C@@]3(C)Oc4cc(-c5cccnc5)oc(=O)c4[C@H](O)[C@@H]3[C@@]2(C)CC[C@@H]1OC(C)=O

>  <outcome measure>
half-life at 6 μg/mL

>  <unit spec>
h

>  <numeric readout>
1

$$$$

----------
Assay: Stability against metabolizing enzymes in the liver (hepatic microsome)
Conditions: female, Sprague-Dawley (SD), rat, liver microsomes, pH 7.4, Half-life, time until remaining amount reached 50%, 37° C.

>  <compound>
COc1ccccc1[C@@H]1OCC2(C)C3C[C@H](OC(=O)c4ccc(F)cc4)[C@@]4(C)Oc5cc(-c6cccnc6)oc(=O)c5[C@H](O)C4[C@@]3(C)CC[C@@H]2O1 (some centres unmarked)

>  <half-life at 6 μg/mL>
≥ 9 h

$$$$
>  <compound>
CC1(COC(=O)c2ccccc2)C2C[C@H](OC(=O)c3ccc(C#N)cc3)[C@@]3(C)Oc4cc(-c5cccnc5)oc(=O)c4[C@H](O)C3[C@@]2(C)CC[C@@H]1OC(=O)c1ccccc1 (some centres unmarked)

>  <half-life at 6 μg/mL>
≥ 9 h

$$$$
>  <compound>
CC(=O)OCC1(C)C2C[C@H](OC(=O)c3ccccc3F)[C@@]3(C)Oc4cc(-c5cccnc5)oc(=O)c4[C@H](O)C3[C@@]2(C)CC[C@@H]1OC(C)=O (some centres unmarked) [PRD026, reference compound]

>  <half-life at 6 μg/mL>
1 h

$$$$
>  <compound>
COc1ccc(CNC(=O)C2(C)C3C[C@H](OC(=O)c4ccc(C#N)cc4)[C@@]4(C)Oc5cc(-c6cccnc6)oc(=O)c5[C@H](O)C4[C@@]3(C)CC[C@@H]2OC(C)=O)c(OC)c1 (some centres unmarked)

>  <half-life at 6 μg/mL>
≥ 9 h

$$$$
>  <compound>
CC(=O)OCC1(C)C2C[C@H](OC(=O)c3ccc(C#N)cc3)[C@@]3(C)Oc4cc(-c5cccnc5)oc(=O)c4[C@H](O)C3[C@@]2(C)CC[C@@H]1OC(=O)c1ccccc1 (some centres unmarked)

>  <half-life at 6 μg/mL>
≥ 9 h

$$$$

----------
Biological target: ACAT2 (Mus musculus, UniProt O88908)
Construct: The resulting sediment was collected as a microsome fraction; from tissue; host or cells: mouse liver (hepatic microsome membrane fraction)
Sequence (O88908 1-525): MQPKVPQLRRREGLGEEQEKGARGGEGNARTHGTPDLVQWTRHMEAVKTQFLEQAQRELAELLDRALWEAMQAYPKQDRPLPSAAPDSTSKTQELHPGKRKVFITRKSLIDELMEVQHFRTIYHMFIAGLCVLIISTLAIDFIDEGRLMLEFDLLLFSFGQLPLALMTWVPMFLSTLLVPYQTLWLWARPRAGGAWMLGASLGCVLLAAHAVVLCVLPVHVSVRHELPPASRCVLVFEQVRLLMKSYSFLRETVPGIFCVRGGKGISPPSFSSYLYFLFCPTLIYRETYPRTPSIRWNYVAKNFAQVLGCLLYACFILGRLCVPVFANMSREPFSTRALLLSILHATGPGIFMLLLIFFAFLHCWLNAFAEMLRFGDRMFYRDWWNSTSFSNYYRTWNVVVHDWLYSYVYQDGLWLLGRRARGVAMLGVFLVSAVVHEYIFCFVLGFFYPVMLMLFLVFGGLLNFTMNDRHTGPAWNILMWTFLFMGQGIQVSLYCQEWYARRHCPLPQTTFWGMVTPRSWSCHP
Assay: Measurement of ACAT2-inhibiting activity (murine hepatic microsome, [14C]cholesteryl oleate formation)
Type: biochemical
Settings: murine hepatic microsome membrane fraction, 5 min at 37° C.; read-out: Inhibitory activity (concentration required for 50% inhibition of ACAT 2 = IC50)
outcome measure: IC50

>  <molecule>
CC(=O)OCC1(C)C2C[C@H](OC(=O)c3ccc(C#N)cc3)[C@@]3(C)Oc4cc(-c5cccnc5)oc(=O)c4[C@H](O)C3[C@@]2(C)CC[C@@H]1OC(=O)c1ccccc1 (some centres unmarked)

>  <outcome measure>
IC50

>  <result>
0.5 to 1 nM

$$$$
>  <molecule>
Cc1ccc([C@@H]2OCC3(C)C4C[C@H](OC(=O)c5ccc(C#N)cc5)[C@@]5(C)Oc6cc(-c7cccnc7)oc(=O)c6[C@H](O)C5[C@@]4(C)CC[C@@H]3O2)c(C)c1 (some centres unmarked)

>  <outcome measure>
IC50

>  <result>
0.5 to 1 nM

$$$$
>  <molecule>
COc1ccc(CNC(=O)C2(C)C3C[C@H](OC(=O)c4ccc(C#N)cc4)[C@@]4(C)Oc5cc(-c6cccnc6)oc(=O)c5[C@H](O)C4[C@@]3(C)CC[C@@H]2OC(C)=O)c(OC)c1 (some centres unmarked)

>  <outcome measure>
IC50

>  <result>
< 0.5 nM

$$$$
>  <molecule>
COc1ccc(C(OC)O[C@H]2CC3C4(C)CO[C@@H](c5ccccc5)O[C@H]4CC[C@]3(C)C3[C@@H](O)c4c(cc(-c5cccnc5)oc4=O)O[C@@]32C)cc1 (some centres unmarked)

>  <outcome measure>
IC50

>  <result>
0.5 to 1 nM

$$$$
>  <molecule>
Cc1cccc([C@@H]2OCC3(C)C4C[C@H](OC(=O)c5ccc(F)cc5)[C@@]5(C)Oc6cc(-c7cccnc7)oc(=O)c6[C@H](O)C5[C@@]4(C)CC[C@@H]3O2)c1 (some centres unmarked)

>  <outcome measure>
IC50

>  <result>
1 to 10 nM

$$$$

----------
Test: Stability against metabolizing enzymes in the liver (hepatic microsome)
Conditions: time until remaining amount reached 50%; female SD rat hepatic microsome, 6 μg/mL, 37° C., pH 7.4

>  <molecule>
CN(C)c1ccc([C@@H]2OCC3(C)C4C[C@H](OC(=O)c5ccc(C#N)cc5)[C@@]5(C)Oc6cc(-c7cccnc7)oc(=O)c6[C@H](O)C5[C@@]4(C)CC[C@@H]3O2)cc1 (some centres unmarked) [PRD123]

>  <Half-life>
>9 h

$$$$
>  <molecule>
CC1(COC(=O)c2ccccc2)C2C[C@H](OC(=O)c3ccc(C#N)cc3)[C@@]3(C)Oc4cc(-c5cccnc5)oc(=O)c4[C@H](O)C3[C@@]2(C)CC[C@@H]1OC(=O)c1ccccc1 (some centres unmarked) [PRD166]

>  <Half-life>
>9 h

$$$$
>  <molecule>
CC(C)C(=O)OCC1(C)C2C[C@H](OC(=O)c3ccc(C#N)cc3)[C@@]3(C)Oc4cc(-c5cccnc5)oc(=O)c4[C@H](O)C3[C@@]2(C)CC[C@@H]1OC(=O)C(C)C (some centres unmarked) [PRD056, reference compound]

>  <Half-life>
>9 h

$$$$
>  <molecule>
CC(=O)OCC1(C)C2C[C@H](OC(=O)c3cccc(Br)c3)[C@@]3(C)Oc4cc(-c5cccnc5)oc(=O)c4[C@H](O)C3[C@@]2(C)CC[C@@H]1OC(C)=O (some centres unmarked) [PRD025, reference compound]

>  <Half-life>
<1 h

$$$$
>  <molecule>
CC12CO[C@@H](c3ccccc3)O[C@H]1CC[C@@]1(C)C2C[C@H](OC(=O)c2ccccc2)[C@@]2(C)Oc3cc(-c4cccnc4)oc(=O)c3[C@H](O)C12 (some centres unmarked) [PRD122]

>  <Half-life>
>9 h

$$$$
